Molecular target: UniProtKB Q9UBL9
Sequence (Q9UBL9 1-471): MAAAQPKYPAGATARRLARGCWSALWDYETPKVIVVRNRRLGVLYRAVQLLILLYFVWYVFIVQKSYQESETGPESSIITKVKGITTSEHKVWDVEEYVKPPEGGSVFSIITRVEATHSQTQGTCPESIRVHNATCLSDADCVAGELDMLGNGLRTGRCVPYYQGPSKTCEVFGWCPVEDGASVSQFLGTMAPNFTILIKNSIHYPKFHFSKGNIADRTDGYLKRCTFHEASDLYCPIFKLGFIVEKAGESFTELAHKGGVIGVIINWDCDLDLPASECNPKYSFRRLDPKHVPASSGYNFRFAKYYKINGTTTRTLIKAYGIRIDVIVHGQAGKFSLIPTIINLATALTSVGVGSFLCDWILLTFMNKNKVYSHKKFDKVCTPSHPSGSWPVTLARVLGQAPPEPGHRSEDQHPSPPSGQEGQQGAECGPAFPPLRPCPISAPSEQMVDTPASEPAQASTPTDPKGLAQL
Assay: Two-electrode voltage clamp, WT P2X2 receptor in Xenopus oocytes
Details: read-out: ATP EC50; P2X2 WT
recorded-endpoint: EC50

Item: Nc1ncnc2c1ncn2[C@@H]1O[C@H](COP(=O)(O)OP(=O)(O)OP(=O)(O)O)[C@@H](O)[C@H]1O | EC50: ~10 µM

---

Target: P2X1 Cys2(1-6) chimera (Homo sapiens, UniProt P51575, A118P/A137L/A141G/A151Y/D154G/DEL120-123/E128S/F152Y/G124S/G131D/I144L/I161V/INS125RVHNAT/INS150P/K127L/K136E/K138D/K140L/K148R/N153Q/P134A/Q142N/R139M/S130A/T133V/T155P/V156S)
Assay: Two-electrode voltage clamp, chimera P2X1 Cys2
Format: cell-based
Conditions: read-out: ATP EC50; P2X1 Cys2(1-6)
recorded-endpoint: EC50

Item: Nc1ncnc2c1ncn2[C@@H]1O[C@H](COP(=O)(O)OP(=O)(O)OP(=O)(O)O)[C@@H](O)[C@H]1O [ATP] | EC50: ~3000 nM

---

Target: P2X2 receptor mutant D136K (Homo sapiens, UniProt Q9UBL9, D148K)
Test: Two-electrode voltage clamp, P2X2 mutant D136K
Conditions: read-out: ATP EC50
recorded-endpoint: pEC50
Answers are plain numbers, as −log10 of the molar value.

Summary line: Nc1ncnc2c1ncn2[C@@H]1O[C@H](COP(=O)(O)OP(=O)(O)OP(=O)(O)O)[C@@H](O)[C@H]1O [ATP] , P2X2 receptor mutant D136K (Homo sapiens, UniProt Q9UBL9, D148K), reported pEC50 = 5.41

---

Biological target: human P2X1 receptor WT (Homo sapiens)
Experiment: Two-electrode voltage clamp, WT P2X1 receptor in Xenopus oocytes
Settings: read-out: ATP EC50; P2X1 WT
pEC50: −log10 of the molar value.
recorded-endpoint: pEC50

Item: Nc1ncnc2c1ncn2[C@@H]1O[C@H](COP(=O)(O)OP(=O)(O)OP(=O)(O)O)[C@@H](O)[C@H]1O | pEC50: ~6.12
